target: T7 RNA polymerase (Escherichia phage T7, UniProt P00573); experiment: Transcription by T7 RNA polymerase in presence of rNTP, RNase T2 digestion, 2-dimension TLC (templates 1 and 3); format: biochemical; conditions: rATP, rGTP, rCTP, UTP 2 mM, rYTP 1 mM; nucleotide composition by 2-dimension TLC
Sequence (P00573 whole entry): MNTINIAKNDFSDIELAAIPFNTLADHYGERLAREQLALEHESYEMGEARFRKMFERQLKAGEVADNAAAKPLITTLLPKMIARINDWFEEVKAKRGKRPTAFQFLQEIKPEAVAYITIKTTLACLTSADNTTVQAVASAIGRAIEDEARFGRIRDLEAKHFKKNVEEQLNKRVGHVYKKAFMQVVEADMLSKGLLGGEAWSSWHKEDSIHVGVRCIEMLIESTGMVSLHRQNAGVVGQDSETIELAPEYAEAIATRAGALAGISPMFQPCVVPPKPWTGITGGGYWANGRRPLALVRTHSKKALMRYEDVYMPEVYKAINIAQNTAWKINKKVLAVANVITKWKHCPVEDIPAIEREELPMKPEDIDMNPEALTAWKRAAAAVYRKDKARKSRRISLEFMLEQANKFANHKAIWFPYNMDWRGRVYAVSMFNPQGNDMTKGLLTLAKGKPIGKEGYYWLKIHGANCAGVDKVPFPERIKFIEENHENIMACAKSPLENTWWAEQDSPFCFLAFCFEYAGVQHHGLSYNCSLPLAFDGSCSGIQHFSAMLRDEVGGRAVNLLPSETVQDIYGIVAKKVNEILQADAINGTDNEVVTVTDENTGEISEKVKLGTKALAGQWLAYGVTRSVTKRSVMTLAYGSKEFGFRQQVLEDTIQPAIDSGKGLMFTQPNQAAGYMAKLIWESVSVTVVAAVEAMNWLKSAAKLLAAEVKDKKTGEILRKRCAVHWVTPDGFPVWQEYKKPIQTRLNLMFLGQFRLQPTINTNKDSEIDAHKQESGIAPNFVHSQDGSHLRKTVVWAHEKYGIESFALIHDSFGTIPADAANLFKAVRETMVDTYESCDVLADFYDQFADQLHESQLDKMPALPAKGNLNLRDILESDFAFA
Each entry below carries its recorded Template 3 (N = X) Measured Value.
No unit in the answer, please; the number alone is enough.

Examples from the recorded data:
chem_smiles=Nc1ccn([C@@H]2O[C@H](CO)[C@@H](OP(=O)(O)O)[C@H]2O)c(=O)n1 observed_property="Template 3 (N = X) Measured Value" measurement=0.94
chem_smiles=Nc1ncnc2c1ncn2[C@@H]1O[C@H](CO)[C@@H](OP(=O)(O)O)[C@H]1O observed_property="Template 3 (N = X) Measured Value" measurement=1.05
chem_smiles=Nc1nc2c(ncn2[C@@H]2O[C@H](CO)[C@@H](OP(=O)(O)O)[C@H]2O)c(=O)[nH]1 observed_property="Template 3 (N = X) Measured Value" measurement=4

Query block: Tell us which Template 3 (N = X) Measured Value value is on record for O=c1ccn([C@@H]2O[C@H](CO)[C@@H](OP(=O)(O)O)[C@H]2O)c(=O)[nH]1
Result block: 0.08

Entry source: patent US7667031B2
